# targetEntity: adenosine A2B receptor (Homo sapiens (Human))
# protocolNotes: Adenosine receptor activity assay (Table 1), A2B activity
# Assay type: biochemical
# testContext: A2A activity to the A2B activity; A2A/A2B
measurementName: Ratio

[a] COc1ccc(CCNC(=O)c2nc(N[C@@H](C)c3cncc(F)c3)nc3ccsc23)cc1
[b] Cc1cc2nc(N[C@@H](C)c3cncc(F)c3)nc(C(=O)N3CC(NC(=O)C4CCOC4)C3)c2s1 (stereo partly shown)
[c] Cc1csc2c(C(=O)NCc3ccccc3)nc(N[C@@H](C)c3ccccn3)nc12
[d] Cc1cc2nc(N[C@@H](C)c3cccnc3)nc(C(=O)NCC[C@@H]3CCNC3)c2s1
Task: Which order do these items fall in when sorted by Ratio from largest to smallest? The reply should contain the labels ordered as requested.
Output: d, a, b, c
(d: 12.75, a: 5.38, b: 1.40, c: 0.44)

----------
# targetEntity: adenosine A2B receptor (Homo sapiens (Human), UniProt P29275)
# Sequence (P29275 whole entry): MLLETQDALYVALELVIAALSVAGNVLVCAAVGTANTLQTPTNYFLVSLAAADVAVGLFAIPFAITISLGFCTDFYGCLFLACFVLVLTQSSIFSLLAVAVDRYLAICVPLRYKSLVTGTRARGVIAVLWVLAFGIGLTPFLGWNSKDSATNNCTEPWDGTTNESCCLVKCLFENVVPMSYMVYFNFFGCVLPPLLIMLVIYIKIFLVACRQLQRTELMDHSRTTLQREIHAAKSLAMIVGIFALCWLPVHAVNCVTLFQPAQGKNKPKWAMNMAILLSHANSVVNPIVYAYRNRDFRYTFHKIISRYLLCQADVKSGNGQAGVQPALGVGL
# protocolNotes: Adenosine receptor activity assay (Table 1), A2B activity
# Assay type: biochemical
# testContext: read-out: Ave A2B cAMP IC50
Reported IC50 values for a set of compounds

Examples with answers:
- recordSmiles: "C[C@H](Nc1nc(C(=O)NCCC2CCN(C(=O)OC(C)(C)C)CC2)c2sccc2n1)c1cncc(F)c1"
  IC50: "50 to 100 nM"
- recordSmiles: "Cc1cc2nc(N[C@@H](C)c3cncc(F)c3)nc(C(=O)N3CC(NC(=O)OC(C)C)C3)c2s1"
  IC50: "10 to 50 nM"
- recordSmiles: "C[C@H](Nc1nc(C(=O)NCCc2cccc(C#N)c2)c2sccc2n1)c1cncc(F)c1"
  IC50: "50 to 100 nM"
- recordSmiles: "CNCC1CN(C(=O)c2nc(N[C@@H](C)c3cncc(F)c3)nc3ccsc23)C1"
  IC50: "100 to 500 nM"
- recordSmiles: "C[C@H](Nc1nc(C(=O)NCCC2CCN(C(=O)OC(C)(C)C)CC2)c2sccc2n1)c1ccccn1"
  IC50: "100 to 500 nM"
- recordSmiles: "C[C@@H]1CCN(C(=O)c2nc(N[C@@H](C)c3cccnc3)nc3ccsc23)C1"
  IC50: "10 to 50 nM"
- recordSmiles: "COC[C@@H](Nc1nc(C(=O)NC[C@@H](C)O)c2sccc2n1)c1cccnc1"
  IC50: "50 to 100 nM"

Now look at this entry.
Task: Give the value of IC50 reported for the following: CO[C@H]1C[C@@H](NC(=O)c2nc(N[C@@H](C)c3cccnc3)nc3ccsc23)C1
Output: 100 to 500 nM

----------
pIC50 overview
# targetEntity: adenosine A2A receptor (Homo sapiens (Human))
# protocolNotes: Adenosine receptor activity assay (Table 1), A2A activity
# Format: biochemical
# testContext: read-out: Ave A2A cAMP IC50
pIC50: −log10 of the molar value.

These solved cases illustrate the format of a correct answer.
- compound: "COC1(C)CN(C(=O)c2nc(N[C@@H](C)c3ccccn3)nc3ccsc23)C1"
  obsValue: "< 6.30"
- compound: "Cc1cc2nc(N[C@@H](C)c3cncc(F)c3)nc(C(=O)N3CC(NC(=O)c4ccoc4)C3)c2s1"
  obsValue: "7.30 to 8.00"
- compound: "O=C(NC1CCC1)c1nc(NCc2cncc(F)c2)nc2ccsc12"
  obsValue: "7.00 to 7.30"

Task: Fill in pIC50 for record C[C@@H]1CCN(C(=O)c2nc(N[C@@H](C)c3ccccn3)nc3ccsc23)C1
Output: 7.00 to 7.30

----------
# targetEntity: UniProt:P29275
# protocolNotes: Adenosine receptor activity assay (Table 1), A2B activity
# Format: biochemical
# testContext: A2A activity to A2B activity (A2A/A2B)
measurementName: Ratio

These solved cases illustrate the format of a correct answer.
- recordSmiles: "C[C@H](Nc1nc(C(=O)N2CC[C@@H](F)C2)c2sccc2n1)c1cccnc1"
  obsValue: 7.83
- recordSmiles: "COc1cccc(CNC(=O)c2nc(N[C@@H](C)c3cccnc3)nc3ccsc23)n1"
  obsValue: 3.11

[P] C[C@H](Nc1nc(C(=O)N2CCOC2)c2sccc2n1)c1ccccn1
[Q] CNc1cc2nc(N[C@@H](C)c3ccccn3)nc(C(=O)N3CC[C@@H](O)C3)c2s1
Task: Which of these two has the smaller recorded Ratio: P or Q ? Your choice should be expressed through its label.
Output: P

[I] C[C@H](Nc1nc(C(=O)NCC2CCC2)c2sccc2n1)c1ccccn1
[II] C[C@H](Nc1nc(C(=O)N2CCC(C)(C)C2)c2sccc2n1)c1cccnc1
Task: Returns: the argument ( I or II ) having the larger Ratio. Your answer should be the label attached to the chosen record.
Output: I

----------
# targetEntity: adenosine A2A receptor (Homo sapiens (Human), UniProt P29274)
# Sequence (P29274 whole entry): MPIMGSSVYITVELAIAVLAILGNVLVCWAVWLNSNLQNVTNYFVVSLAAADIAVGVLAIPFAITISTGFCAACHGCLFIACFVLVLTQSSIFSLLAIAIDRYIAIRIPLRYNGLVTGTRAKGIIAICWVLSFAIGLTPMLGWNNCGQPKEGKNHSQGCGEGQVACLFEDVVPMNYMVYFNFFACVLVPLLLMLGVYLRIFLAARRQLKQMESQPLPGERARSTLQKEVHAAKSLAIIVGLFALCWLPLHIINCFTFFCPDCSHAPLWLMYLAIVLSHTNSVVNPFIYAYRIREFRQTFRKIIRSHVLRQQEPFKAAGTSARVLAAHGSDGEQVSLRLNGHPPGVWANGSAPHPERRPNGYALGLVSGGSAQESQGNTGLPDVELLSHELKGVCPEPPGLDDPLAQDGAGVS
# protocolNotes: Adenosine receptor activity assay (Table 1), A2A activity
# Type: biochemical
# testContext: cAMP; read-out: Ave A2A cAMP IC50
measurementName: IC50

Some compounds with recorded IC50:
- recordSmiles: "C[C@H](Nc1nc(C(=O)N2CC(NC(=O)C3(C)CCC3)C2)c2sccc2n1)c1cncc(Cl)c1"
  obsValue: "< 10 nM"
- recordSmiles: "C[C@H](Nc1nc(C(=O)N2CC(C)(NC(=O)C3CC3)C2)c2sccc2n1)c1cncc(F)c1"
  obsValue: "50 to 100 nM"
- recordSmiles: "COc1cccc(C(=O)NC2CN(C(=O)c3nc(N[C@@H](C)c4cncc(F)c4)nc4ccsc34)C2)c1"
  obsValue: "10 to 50 nM"
- recordSmiles: "C[C@H](Nc1nc(C(=O)N2CC(NC(=O)c3ccccc3F)C2)c2sccc2n1)c1cncc(F)c1"
  obsValue: "< 10 nM"
- recordSmiles: "C[C@H](Nc1nc(C(=O)N2CC(NC(=O)c3cccnc3)C2)c2sccc2n1)c1cncc(F)c1"
  obsValue: "50 to 100 nM"

Task: Name the recorded IC50 of C[C@H](Nc1nc(C(=O)N2CC(NC(=O)C3CCCCC3)C2)c2sccc2n1)c1cncc(F)c1 , assay system adenosine A2A receptor (Homo sapiens (Human), UniProt P29274).
Output: < 10 nM

Task: With adenosine A2A receptor (Homo sapiens (Human), UniProt P29274) as the test system, provide measured IC50 for this compound: C[C@H](Nc1nc(C(=O)N2CC(NC(=O)c3ccccc3)C2)c2sccc2n1)c1cncc(F)c1
Output: 10 to 50 nM

----------
Catalogue of IC50 values
# targetEntity: adenosine A1 receptor (Homo sapiens (Human), UniProt P30542)
# Sequence (P30542 whole entry): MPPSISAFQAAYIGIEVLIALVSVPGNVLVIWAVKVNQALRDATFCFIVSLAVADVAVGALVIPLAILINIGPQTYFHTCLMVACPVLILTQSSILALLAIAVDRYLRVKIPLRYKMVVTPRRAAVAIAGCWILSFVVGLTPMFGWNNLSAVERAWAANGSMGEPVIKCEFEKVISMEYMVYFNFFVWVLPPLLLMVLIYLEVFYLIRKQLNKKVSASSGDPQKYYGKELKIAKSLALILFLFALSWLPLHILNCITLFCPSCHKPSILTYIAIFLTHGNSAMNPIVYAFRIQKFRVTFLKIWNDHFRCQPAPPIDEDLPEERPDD
# protocolNotes: Adenosine receptor activity assay (Table 1), A1 cAMP
# Assay type: biochemical
# Protocol: Table 1. Compounds (e.g., Adenosine Receptor modulators) and activity assay results. The legend is as follows: A=<10 nM; B=10-50 nM; C=50-100 nM; D=100-500; and E=>500 nM. The ratio corresponds to the A2A activity to the A2B activity; or A2A/A2B.

In the examples that follow, each entry is paired with its recorded IC50.
- compound: "Cc1cc2nc(N[C@@H](C)c3cncc(F)c3)nc(C(=O)N3CC[C@@H](CN)C3)c2s1"
  IC50: "< 0.01 µM"
- compound: "C[C@H](Nc1nc(C(=O)N2CC(NC(=O)C3CCOC3)C2)c2sccc2n1)c1cncc(F)c1 (some centres unmarked)"
  IC50: "> 0.5 µM"
- compound: "C[C@H](Nc1nc(C(=O)N2CC(CN(C)C(=O)C(C)(C)C)C2)c2sccc2n1)c1cncc(F)c1"
  IC50: "> 0.5 µM"
- compound: "C[C@H](Nc1nc(C(=O)N2CC(CNC(=O)N(C)C)C2)c2sccc2n1)c1cncc(F)c1"
  IC50: "> 0.5 µM"
- compound: "CN[C@@H]1CCN(C(=O)c2nc(N[C@@H](C)c3cncc(F)c3)nc3cc(C)sc23)C1"
  IC50: "> 0.5 µM"
- compound: "CC(=O)NC1CN(C(=O)c2nc(N[C@@H](C)c3cncc(F)c3)nc3ccsc23)C1"
  IC50: "> 0.5 µM"

Task: Write down IC50 measured for item Cc1csc2c(C(=O)N3CCCC3)nc(N[C@@H](C)c3ccccn3)nc12
Output: > 0.5 µM

Task: Tell me measured IC50 for C[C@H](Nc1nc(C(=O)N2CC(CNC(=O)C(C)(C)C)C2)c2sccc2n1)c1cncc(F)c1 please.
Output: > 0.5 µM

----------
Readings of IC50 for the listed compounds
# targetEntity: adenosine A2A receptor (Homo sapiens (Human), UniProt P29274)
# protocolNotes: Adenosine receptor activity assay (Table 1), A2A activity
# Format: biochemical
# testContext: read-out: Ave A2A cAMP IC50

In the examples that follow, each entry is paired with its recorded IC50.
- recordSmiles: "O=C(c1nc(NCc2cccnn2)nc2ccsc12)N1CCCC1"
  obsValue: "> 500 nM"
- recordSmiles: "Cc1cc2nc(N[C@@H](C)c3cncc(F)c3)nc(C(=O)NCCN3CCOCC3)c2s1"
  obsValue: "> 500 nM"
- recordSmiles: "COc1ccc(CNC(=O)c2nc(N[C@@H](C)c3ccccn3)nc3cc(C)sc23)cc1"
  obsValue: "100 to 500 nM"
- recordSmiles: "C[C@H](Nc1nc(C(=O)NCc2nccn2C)c2sccc2n1)c1ccccn1"
  obsValue: "> 500 nM"
- recordSmiles: "Cc1cc2nc(N[C@@H](C)c3cncc(F)c3)nc(C(=O)N3CC(NC(=O)OC(C)C)C3)c2s1"
  obsValue: "10 to 50 nM"

Task: Please give measured IC50 of the following entry: C[C@H](Nc1nc(C(=O)NCC(C)(C)O)c2sccc2n1)c1cncc(F)c1
Output: 100 to 500 nM

Task: Provide IC50 value for the following compound: O=C(NCC1CCN(Cc2ccccc2)CC1)c1nc(NCc2cncc(F)c2)nc2ccsc12
Output: 50 to 100 nM

Task: Output measured IC50 for this item: O=C(c1nc(NCc2cccnc2)nc2ccsc12)N1CC[C@@H](O)C1
Output: > 500 nM
